Values from patent US10508085B2

target: Human Indoleamine 2,3-dioxygenase (IDO) (Homo sapiens); construct: His tag (N); made in house; host or cells: E. coli; test: Human IDO enzymatic assay (kynurenine level); assay type: biochemical; conditions: 6 nM IDO, 10 μM L-Trp; geometric mean; read-out: IDO1 GMean: IC50 (μM) (Biochemical Assay)
Sequence (P14902 whole entry): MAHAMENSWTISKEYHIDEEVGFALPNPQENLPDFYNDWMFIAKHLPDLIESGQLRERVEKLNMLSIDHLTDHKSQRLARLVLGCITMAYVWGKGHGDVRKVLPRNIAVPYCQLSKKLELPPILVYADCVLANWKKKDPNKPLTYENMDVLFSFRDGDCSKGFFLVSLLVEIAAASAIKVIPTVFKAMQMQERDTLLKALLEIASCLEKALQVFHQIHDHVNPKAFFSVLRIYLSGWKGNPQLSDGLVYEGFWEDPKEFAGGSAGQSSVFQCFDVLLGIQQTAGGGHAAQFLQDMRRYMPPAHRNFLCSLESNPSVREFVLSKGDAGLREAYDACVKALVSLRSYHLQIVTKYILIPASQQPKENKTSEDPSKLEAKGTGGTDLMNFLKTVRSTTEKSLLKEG
As shown below, each of these compounds has a reported IC50 value.
Experimental Endpoint: IC50

INSERT INTO assay_data (compound, target_or_system, value_observed) VALUES
  ('Cc1ccc2cn[nH]c2c1C(O)C12CC3CC(CC(C3)C1)C2 (stereo not shown) [Compound P-0037]', 'Human Indoleamine 2,3-dioxygenase (IDO) (Homo sapiens)', '0.0001 to 10 µM'),
  ('CC(C)NC(=O)N1CCC(C(C)(C)C(O)c2cc(Cl)cc3cn[nH]c23)CC1 (stereo not shown) [Compound P-0315]', 'Human Indoleamine 2,3-dioxygenase (IDO) (Homo sapiens)', '0.0001 to 10 µM'),
  ('CCC(CC)(CC)C(O)c1cc(Cl)cc2cn[nH]c12 (stereo not shown) [Compound P-0267]', 'Human Indoleamine 2,3-dioxygenase (IDO) (Homo sapiens)', '0.0001 to 10 µM'),
  ('CC(=O)N1CCC(C2(C(O)c3c(F)c(Cl)cc4cn[nH]c34)CC2)CC1 (stereo not shown) [Compound P-0159]', 'Human Indoleamine 2,3-dioxygenase (IDO) (Homo sapiens)', '0.0001 to 10 µM');
